Molecular target: Melanin-concentrating hormone receptor 1 (Homo sapiens)
Test: Antagonist activity at human MCHR1 expressed in Jurkat cells co-expressing apoaequorin assessed as inhibition of MCH-induced calcium mobilization by aequorin bioluminescence assay
Assay type: functional, cell-based
pIC50: −log10 of the molar value.
QUANTITY_MEASURED: pIC50

(a) C[C@@H]1c2c([nH]c3ccc(C(F)(F)F)cc23)C[C@@H]2CCN(CCN3CCOCC3)C[C@H]21
(b) Cc1ccc2[nH]c3c(c2c1)C(C)C1CN(C)CCC1C3 (racemic)
(c) CC1c2c([nH]c3ccc(C(F)(F)F)cc23)CC2CCN(Cc3ccccc3)CC21 (racemic)
Query :: Sequence the entries by pIC50, beginning with the highest number. Give me the labels in the order the question wants.
Result :: b, c, a

* * *

Experiment: Volume of distribution at steady state in rat at 0.5 mg/kg, iv
Type: ADME, organism-based
Parameters: dose 0.5 mg/kg, route intravenous
Conditions: in vivo, read-out: Vdss
QUANTITY_MEASURED: Vd (L/kg)
Expressed in L/kg, but write only the number.

Query :: Return value of Vd for input "C[C@H]1c2c([nH]c3ccc(C(F)(F)F)cc23)C[C@H]2CCN(CCCC3CCOCC3)C[C@@H]21" , no commentary.
Result :: 16

* * *

Test: Clearance in rat hepatocytes assessed per 10^6 cells
Format: ADME, cell-based, Liver, Hepatocyte
QUANTITY_MEASURED: hepatocyte CLint

Query :: Return value of hepatocyte CLint for input "C[C@H]1c2c([nH]c3ccc(C(F)(F)F)cc23)C[C@H]2CCN(CCCC3CCOCC3)C[C@@H]21" , no commentary.
Result :: < 0.3 µL/min/1e6 cells

* * *

Test: Clearance in rhesus monkey at 0.5 mg/kg, iv
Format: ADME, organism-based, Macaca mulatta
Set-up: dose 0.5 mg/kg, route intravenous
Details: in vivo
QUANTITY_MEASURED: clearance (mL/min/kg)
Expressed in mL/min/kg, but write only the number.

Query :: Return value of clearance for input "C[C@H]1c2c([nH]c3ccc(C(F)(F)F)cc23)C[C@H]2CCN(CCCC3CCOCC3)C[C@@H]21" , no commentary.
Result :: 65

* * *

Test: Mean residence time in rhesus monkey at 3 mg/kg, po
Type: ADME, organism-based, Macaca mulatta
Parameters: dose 3 mg/kg, route oral
Conditions: in vivo
QUANTITY_MEASURED: MRT (h)
Expressed in h, but write only the number.

Query :: Return value of MRT for input "C[C@H]1c2c([nH]c3ccc(C(F)(F)F)cc23)C[C@H]2CCN(CCCC3CCOCC3)C[C@@H]21" , no commentary.
Result :: 10

* * *

Target: Melanin-concentrating hormone receptor 1 (Macaca fascicularis, UniProt B6F061)
Sequence (B6F061 whole entry): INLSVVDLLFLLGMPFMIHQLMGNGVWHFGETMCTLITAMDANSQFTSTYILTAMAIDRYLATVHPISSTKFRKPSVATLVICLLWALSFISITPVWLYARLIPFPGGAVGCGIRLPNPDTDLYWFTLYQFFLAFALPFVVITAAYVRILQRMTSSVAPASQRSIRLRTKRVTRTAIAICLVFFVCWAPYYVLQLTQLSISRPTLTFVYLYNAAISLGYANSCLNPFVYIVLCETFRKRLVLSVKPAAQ
Experiment: Antagonist activity at cynomolgus monkey MCHR1
QUANTITY_MEASURED: pIC50
To interpret pIC50, take it as minus log10 of a concentration measured in moles per litre.

Query :: Return value of pIC50 for input "C[C@H]1c2c([nH]c3ccc(C(F)(F)F)cc23)C[C@H]2CCN(CCCC3CCOCC3)C[C@@H]21" , no commentary.
Result :: 8.40

* * *

Molecular target: Melanin-concentrating hormone receptor 1 (Rattus norvegicus)
Sequence (P97639 whole entry): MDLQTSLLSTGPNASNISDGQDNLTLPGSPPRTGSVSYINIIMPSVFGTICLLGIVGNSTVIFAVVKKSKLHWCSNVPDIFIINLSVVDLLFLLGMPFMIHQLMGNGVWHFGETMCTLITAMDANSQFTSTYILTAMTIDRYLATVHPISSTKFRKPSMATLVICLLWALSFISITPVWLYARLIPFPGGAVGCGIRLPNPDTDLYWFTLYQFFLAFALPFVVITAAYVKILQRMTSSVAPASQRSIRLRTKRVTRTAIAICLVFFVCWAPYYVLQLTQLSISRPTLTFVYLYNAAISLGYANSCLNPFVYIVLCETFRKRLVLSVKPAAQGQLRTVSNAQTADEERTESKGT
Assay: Antagonist activity at rat MCHR1 expressed in HEK293 cells by aequorin bioluminescence assay
QUANTITY_MEASURED: IC50 (nM)
Expressed in nM, but write only the number.

Query :: Give IC50; test system Melanin-concentrating hormone receptor 1 (Rattus norvegicus); compound "C[C@H]1c2c([nH]c3ccc(C(F)(F)F)cc23)C[C@H]2CCN(CCCC3CCOCC3)C[C@@H]21"
Result :: 4

* * *

Test: Mean residence time in rat at 3 mg/kg, po
Assay type: ADME, organism-based
Parameters: dose 3 mg/kg, route oral
Details: in vivo
QUANTITY_MEASURED: MRT (h)
Expressed in h, but write only the number.

Query :: Return value of MRT for input "C[C@H]1c2c([nH]c3ccc(C(F)(F)F)cc23)C[C@H]2CCN(CCCC3CCOCC3)C[C@@H]21" , no commentary.
Result :: 28

* * *

Test: Volume of distribution at steady state in rhesus monkey at 0.5 mg/kg, iv
Assay type: ADME, organism-based, Macaca mulatta
Parameters: dose 0.5 mg/kg, route intravenous
Settings: in vivo, read-out: Vdss
QUANTITY_MEASURED: Vd (L/kg)
Expressed in L/kg, but write only the number.

Query :: Return value of Vd for input "C[C@H]1c2c([nH]c3ccc(C(F)(F)F)cc23)C[C@H]2CCN(CCCC3CCOCC3)C[C@@H]21" , no commentary.
Result :: 18

* * *

Experiment: Oral bioavailability in Beagle dog at 3 mg/kg
Type: ADME, organism-based, Canis lupus familiaris
Settings: in vivo
QUANTITY_MEASURED: bioavailability (%)
Expressed in %, but write only the number.

Query :: Return value of bioavailability for input "C[C@H]1c2c([nH]c3ccc(C(F)(F)F)cc23)C[C@H]2CCN(CCCC3CCOCC3)C[C@@H]21" , no commentary.
Result :: 33

* * *

Molecular target: Melanin-concentrating hormone receptor 1 (Homo sapiens, UniProt Q99705)
Sequence (Q99705 whole entry): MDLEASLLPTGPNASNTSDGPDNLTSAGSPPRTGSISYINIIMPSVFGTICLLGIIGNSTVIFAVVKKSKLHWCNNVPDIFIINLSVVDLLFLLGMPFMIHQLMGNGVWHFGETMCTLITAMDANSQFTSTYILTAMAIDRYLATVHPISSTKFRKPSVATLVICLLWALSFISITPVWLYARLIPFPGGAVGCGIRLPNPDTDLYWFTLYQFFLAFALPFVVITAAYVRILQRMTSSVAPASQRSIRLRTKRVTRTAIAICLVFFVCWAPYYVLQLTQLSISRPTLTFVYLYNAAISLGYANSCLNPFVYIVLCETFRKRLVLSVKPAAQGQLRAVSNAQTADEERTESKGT
Experiment: Antagonist activity at human MCHR1 expressed in Jurkat cells co-expressing apoaequorin assessed as inhibition of MCH-induced calcium mobilization by aequorin bioluminescence assay
Type: functional, cell-based
QUANTITY_MEASURED: IC50 (nM)

Below, 2 compounds whose answers are already recorded.
C[C@H]1c2c([nH]c3ccc(C(F)(F)F)cc23)C[C@H]2CCN(CCN3CCOCC3=O)C[C@@H]21	7
CC1c2c([nH]c3cc(C(F)(F)F)ccc23)CC2CCN(C)CC21 (racemic)	200

(1) CC1c2c([nH]c3ccc(C(F)(F)F)cc23)CC2CCN(C)CC21 (racemic)
(2) CC1c2c([nH]c3ccc(C(F)(F)F)cc23)CC2CCN(CCc3ccccc3)CC21 (racemic)
(3) C[C@H]1c2c([nH]c3ccc(C(F)(F)F)cc23)C[C@H]2CCN(CCCC3CCOCC3)C[C@@H]21
(4) CC1c2c([nH]c3ccc(C(F)(F)F)cc23)CC2CCN(CCN3CCOCC3)CC21 (racemic)
Query :: Give the ascending ranking of the items by reported IC50. Give me the labels in the order the question wants.
Result :: 3, 4, 1, 2
(3: 6 nM, 4: 20 nM, 1: 100 nM, 2: 180 nM)

(A) CC1c2c([nH]c3ccc(C(F)(F)F)cc23)CC2CCN(CC3CCCCO3)CC21 (racemic)
(B) COc1ccc2[nH]c3c(c2c1)C(C)C1CN(C)CCC1C3 (racemic)
Query :: Hi there, can you help? I need to know whether A or B has lower measured IC50. Please identify the chosen entry by its label.
Result :: A

* * *

Test: Clearance in Beagle dog hepatocytes assessed per 10^6 cells
Type: ADME, cell-based, Canis lupus familiaris, Liver, Hepatocyte
QUANTITY_MEASURED: hepatocyte CLint (µL/min/1e6 cells)
Expressed in µL/min/1e6 cells, but write only the number.

Query :: Return value of hepatocyte CLint for input "C[C@H]1c2c([nH]c3ccc(C(F)(F)F)cc23)C[C@H]2CCN(CCCC3CCOCC3)C[C@@H]21" , no commentary.
Result :: 8

* * *

Assay: Oral bioavailability in rhesus monkey at 3 mg/kg
Type: ADME, organism-based, Macaca mulatta
Settings: in vivo
QUANTITY_MEASURED: bioavailability (%)
Expressed in %, but write only the number.

Query :: Return value of bioavailability for input "C[C@H]1c2c([nH]c3ccc(C(F)(F)F)cc23)C[C@H]2CCN(CCCC3CCOCC3)C[C@@H]21" , no commentary.
Result :: 70

* * *

Experiment: AUC in Beagle dog at 3 mg/kg, po
Type: ADME, organism-based, Canis lupus familiaris
Parameters: dose 3 mg/kg, route oral
Conditions: plasma
QUANTITY_MEASURED: AUC (ng·h/mL)
Expressed in ng·h/mL, but write only the number.

Query :: Return value of AUC for input "C[C@H]1c2c([nH]c3ccc(C(F)(F)F)cc23)C[C@H]2CCN(CCCC3CCOCC3)C[C@@H]21" , no commentary.
Result :: 268

* * *

Assay: Clearance in Beagle dog at 0.5 mg/kg, iv
Format: ADME, organism-based, Canis lupus familiaris
Design: dose 0.5 mg/kg, route intravenous
Conditions: in vivo
QUANTITY_MEASURED: clearance (mL/min/kg)
Expressed in mL/min/kg, but write only the number.

Query :: Return value of clearance for input "C[C@H]1c2c([nH]c3ccc(C(F)(F)F)cc23)C[C@H]2CCN(CCCC3CCOCC3)C[C@@H]21" , no commentary.
Result :: 100

* * *

Assay: Volume of distribution at steady state in Beagle dog at 0.5 mg/kg, iv
Type: ADME, organism-based, Canis lupus familiaris
Parameters: dose 0.5 mg/kg, route intravenous
Details: in vivo, read-out: Vdss
QUANTITY_MEASURED: Vd (L/kg)
Expressed in L/kg, but write only the number.

Query :: Return value of Vd for input "C[C@H]1c2c([nH]c3ccc(C(F)(F)F)cc23)C[C@H]2CCN(CCCC3CCOCC3)C[C@@H]21" , no commentary.
Result :: 27
